B1: TPR t1 (parent)
chain: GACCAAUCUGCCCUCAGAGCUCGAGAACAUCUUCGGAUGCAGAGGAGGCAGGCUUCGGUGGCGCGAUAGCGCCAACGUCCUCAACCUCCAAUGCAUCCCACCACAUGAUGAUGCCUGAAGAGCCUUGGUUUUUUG

variants of: B1; experiment: polymerase ribozyme fitness, log enrichment relative to wild type (log ratio); higher = more active; in vitro selection for triplet polymerase activity
Entries and their measured polymerase ribozyme fitness (log ratio) follow.
Format: numeric value only, no unit, no commentary.

Form field: reported polymerase ribozyme fitness (log ratio) of G10A C13A C49G A84C -0.63

Same question for A37U C72G U78C A119U please. -1.26

Same question for A37U G39U C72U U125G please. -3.21

More entries:
Form field: reported polymerase ribozyme fitness (log ratio) of `U112A` 1.34
